target: T1, eukaryotically produced human IL-6 (human, UniProt P05231 30-212); experiment: SPR; purified Fab
T1 construct: also called eukIL-6; Euk IL-6
pKd: −log10 of the molar value.

{"binder": "Fab 41E10/35B1 (Fab, V domains shown, VL-shuffled Fab of 17F10) VH: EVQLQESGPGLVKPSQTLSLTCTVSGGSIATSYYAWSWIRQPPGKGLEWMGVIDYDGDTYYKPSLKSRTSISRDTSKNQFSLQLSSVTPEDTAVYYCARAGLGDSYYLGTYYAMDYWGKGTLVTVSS VL: QAVLTQPPSMSGTLGKTLTISCNGTSSDIGSGNYVSWYQQLPGTTPKLLIEGVTTRVSGIPDRFSGSKSDNTASLTISGLQSEDEATYYCASYRETNNVVFGGGTHLTVLG", "pKd": 9.34}
{"binder": "Fab 17F10 (Fab, V domains shown, Fab; also called 17F10 pur Fab 68 nM) VH: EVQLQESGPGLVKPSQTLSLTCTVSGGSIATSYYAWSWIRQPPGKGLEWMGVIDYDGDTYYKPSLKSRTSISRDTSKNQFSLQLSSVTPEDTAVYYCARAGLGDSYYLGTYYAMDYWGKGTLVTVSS VL: QAGLTQPPSVSGSPGKTVTISCAGTTSDVGTGNFVSWYQQLPGMAPKLLIYDVNKRASGIADRFSGSKSGNTASLTISGLQSEDEADYYCASYRSLNNVVFGGGTHLTVLG", "pKd": 8.22}
{"binder": "Fab 42H1/36A1 (Fab, V domains shown, VL-shuffled Fab of 18C11) VH: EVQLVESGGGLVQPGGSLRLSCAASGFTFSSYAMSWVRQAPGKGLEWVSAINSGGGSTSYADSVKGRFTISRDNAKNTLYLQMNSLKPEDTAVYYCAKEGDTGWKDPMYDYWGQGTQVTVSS VL: AQSALTQPSALSVTLGQTAKITCQGGSLGTRYAHWYQQKPGQAPVLVIYDDDSRPSGIPERFSGSSSGGRATLTISGAQAEDEGDYYCQSADSSGNASVFGGGTHLTVLG", "pKd": 9.47}
